// data source = paper PMC9090415

- Test target: P. falciparum apicoplast DNA polymerase (Pf-apPOL) (Plasmodium falciparum, UniProt Q8ILY1)
- Sequence (Q8ILY1 entry or part of it): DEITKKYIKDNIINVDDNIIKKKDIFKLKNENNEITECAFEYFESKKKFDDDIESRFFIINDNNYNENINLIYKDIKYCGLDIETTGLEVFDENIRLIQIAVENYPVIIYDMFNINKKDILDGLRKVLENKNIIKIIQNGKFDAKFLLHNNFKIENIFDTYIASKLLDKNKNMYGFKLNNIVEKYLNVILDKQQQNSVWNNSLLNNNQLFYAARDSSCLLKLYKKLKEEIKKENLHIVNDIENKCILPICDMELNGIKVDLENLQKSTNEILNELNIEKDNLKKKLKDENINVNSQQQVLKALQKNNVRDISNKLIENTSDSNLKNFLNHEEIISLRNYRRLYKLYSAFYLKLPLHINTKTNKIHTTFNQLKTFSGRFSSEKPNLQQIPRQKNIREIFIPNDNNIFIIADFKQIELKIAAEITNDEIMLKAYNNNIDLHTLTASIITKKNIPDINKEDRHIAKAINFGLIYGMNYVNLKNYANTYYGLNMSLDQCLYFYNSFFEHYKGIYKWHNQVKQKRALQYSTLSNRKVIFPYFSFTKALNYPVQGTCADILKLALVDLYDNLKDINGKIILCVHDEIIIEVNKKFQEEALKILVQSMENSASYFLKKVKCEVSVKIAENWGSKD
- Assay name: Fluorescence-based high-throughput DNA polymerase assay (molecular beacon), primary screen and dose-response
- Assay type: biochemical
- Condition summary: DRC-2; read at 90'; concentration 10
Short version: % inhibition ApPOL 90' 10 at least 40% is y, less is n.

Look over these answered cases.
[
  {
    "Compound": "COc1ccccc1CC(=O)N1CCc2c(nc3cc(-c4ccccc4Cl)[nH]n3c2=O)C1",
    "Label class": "y"
  },
  {
    "Compound": "COc1ccc(/C=C/c2cc(C(=O)O)c3ccccc3n2)cc1",
    "Label class": "n"
  },
  {
    "Compound": "O=C(CCc1csc(NC(=O)Nc2ccccc2)n1)Nc1nc2ccccc2s1",
    "Label class": "y"
  },
  {
    "Compound": "Cc1cccc(-c2noc(C(=O)NNC(=O)C(Cl)(Cl)Cl)n2)c1",
    "Label class": "n"
  },
  {
    "Compound": "Nc1cc(Oc2ccc(O)c(N)c2)ccc1O",
    "Label class": "y"
  }
]

Kindly consider the entry below.
Query: # check: % inhibition ApPOL 90' 10 of O=C1CSC2=NC3=C(CCc4ccccc43)C(c3cccs3)N12 (stereo not drawn) is greater than or equal to 40%
Response: n
